assay: soluble on expression in E. coli; label from the status in PepcDB or PDB records

Seq String	soluble on expression in E. coli
MGSDKIHHHHHHMRDIHILHDLIKKQCPQIHQKRLNSLMVATESLLDGNQLSLTQLGRNITGSVAAKHNIKRIDRLLGNYHLAQDKITIYQWHARYLCGANPMPIILVDWSDVREQLRIMTLRASISVQGRSVTLYERTFLFEDYNAPRSHNAFLAELANVLPQGCCPLIVTDAGYRNTWFREVERYGWFWLGRVRGDVSFMHHGQTTWHSNKSLYSKANSTAKYIGNVQLARKSPLSCHLHLF	not soluble
GAMGSSRKSKAELQSEERKRIDELIESGKEEGMKIDLIDGKGRGVIATKQFSRGDFVVEYHGDLIEITDAKKREALYAQDPSTGCYMYYFQYLSKTYCVDATRETNRLGRLINHSKCGNCQTKLHDIDGVPHLILIASRDIAAGEELLYDYGDRSKASIEAHPWLKH	soluble
DDVPPRIARAMENEEYWDFDIFELEAATHNRPLIYLGLKMFARFGICEFLHCSESTLRSWLQIIEANYHSSNPYHNSTHSADVLHATAYFLSKERIKETLDPIDEVAALIAATIHDVDHPGRTNSFLCNAGSELAILYNDTAVLESHHAALAFQLTTGDDKCNIFKNMERNDYRTLRQGIIDMVLATEMTKHFEHVNKFVNSINKPLATLEENGETDKNQEVINTMLRTPENRTLIKRMLIKCADVSNPCRPLQYCIEWAARISEEYFSQTDEEKQQGLPVVMPVFDRNTCSIPKSQISFIDYFITDMFDAWDAFVDLPDLMQHLDNNFKYWKGLDEM	soluble
MGSDKIHHHHHHMLAASMVDLARRLGVSSVHVTFPGGDEYEGLGEAGYLQRLGSQYHWTNPGYQSFDDFLGQLSSRKRKQIRKERDAVARTGIRLSTLVGGDVKARHWDVFHAFYQAVVDRKWGRAYVSRAFFEELSASALADSVVLVWAEDGGEPLGAAFNMLGGDTLYGRTWGGGRHVDFLHFEACYYRALDFAIAQGLARVEAGAQGEHKVSRGYLPNATYSAHWIADSRLAEPVARYLVHERAMVTEDMASQTEEGPFRKG	not soluble
MGSDKIHHHHHHMAESETGDKAGQASVKTALRVIEIMEIYAREGRSLTLTELAKLLGAPMSSCLGLIRTLASLGYLYETGRRQGYYPTSRLLNIAQRISRNDPLLERVQPVLETLRDATGETVIFGKLQDDGRVLYLEVRESQNPVRYTATPGELRDVHINSIGRAILGAMTDAARDAALAKVSFQPRTGRTVASREALEREIAMWQQQGWYPNFGESFPDLGAIAVPVEIGGAVYGMSVAGPIHRVESSVDPIVAALLRGQDALRT	not soluble
MHIISLLLENEPGALSRVVGLFSQRNYNIESLTVAPTEDPTLSRLTLTTVGHDEVIEQITKNLNKLIEVVKLVDL	soluble

====

assay: soluble on expression in E. coli; label from the status in PepcDB or PDB records

Seq String	soluble on expression in E. coli
MGLSHKFQVKQFVEISPYSQSRLRHEQPQTPIHSDITTYHCHRGQFDIVAGGLPCQGTSNAGNRQGLDDPRSALWAEQFRIIESDRPAIALIENPTGLLYRGLEQIICDLDSIGYMGEWNCISAQQVGLPHQRKRIFIIAYSNGLFNQVVPAPWSNQIGNHITQVRLSLETRSYQPGISKVASRIPIGVAKNIPGNYDARRAYGLSCSPRQAAVAWKRIDYLCSLLEHHHHHH	not soluble
MSLREIHVDTLTDAVAKLCIDACHRLPDNLVESFHKAAEKEVSPLGKSVLMKLIDNDRIARENDVSYCHDTGLAIVFVEVGQDVHIVGGSYEDAIQAGVRKGYAEGYMRKSVVSDPLLRVNSNDNTPAVVHTEIVPGDNIEVTVVPKGGGSENWSTMKFLLPGEGAEGVKKFVLSAIEAAGGAACPPLTVGVGIGGSFDKVTAIAKKAILRDIGVHHKEPHVAKLEAELLDAINKTGIGPQGYGGVNTALWVSVETYACHITALPVAVNIQCHAGRRATAVIEGHHHHHH	soluble
MGSDKIHHHHHHLNAKIVCVSNKQLTISLDDFSGPLDLLLHLIRTQELDIFDLPIAKVTDQFLSFIDNQLNPSLDSAGEYLYMASTLIRIKSRFLLPTVKNEQEDEKEEDPRNELVNALIEYECYQAVTQDMSELEHSRSLSFTRPVAKIPENIEIKPLSAGVTLQDLQKAFLEIANRQKDLHPKKRTIERENFSVADKINEIKTFFGQKKLDSKIEFQYLFKLSSSNDEMITTFLAILELAKDHFILLSQNDEQQIFLTKGEMNA	not soluble
MSLKVFQFKDWAVACDNIRHCEANGTQAGDGDNPVSLLLSRDAGPGSRLSAQLDVDDPDGDKVGKLTLKVGRIKWTGIDAEQAFSDAQTTQLLAAMLDADEVALADGKREWTLSLAGLKAALLKMDDVQGRVGTVGALVKKGGKPESAAPAAQPAPLLVPLAPPAARPGDQKLLPAILKQLRAVDKACWDELPDAEHPDVQLYRLSASQVLVLRECGRGAYQGSYKAWTSGDAPPFHPREVPLRGSDGKETFLMNASFDKGELSSYAKGRGIGDCGSGASWAWTGKDFKLMSAQEAPQCRGIAGGVSLRTWVTRQKEGHHHHHH	soluble
GPGSMSRYSTGIENIPSLFDLASALTGFIADFTQVVFGNTQTSFTAAALEETDRGNYDPVARSWEGTGGLNYRVPLYPIPSERHTRERTRNIKILMDNCRRICVEDELPSTKEELQFWTAYRFMKYQMYLTPTCVIMPPLYVMWRMFHDRIPRPFRGRTIPVTLSLALAEQWADATYPGHQFLSTALRAKTPMGDAARAEWLRLQPIDIPYYIYAAYQFQHFFGNVPKEILFGGDIAGYCS	not soluble
KVGLIIISHGRIATETVNVVKELLGVKFPVAIDMPLDEKPINIYNKAVELSKIIDQGKGILFLVDIGSLTNIGQIVNKRTNISTKTIDRVDLLMALEATRKVSMGEEELDEIFFSLLKDRMGYNYELEKHIDKS	not soluble
